- measured on: mouse CSL core domain (residues 53-474), wild type (mouse) (UniProt P31266)
- Sequence (P31266 53-474): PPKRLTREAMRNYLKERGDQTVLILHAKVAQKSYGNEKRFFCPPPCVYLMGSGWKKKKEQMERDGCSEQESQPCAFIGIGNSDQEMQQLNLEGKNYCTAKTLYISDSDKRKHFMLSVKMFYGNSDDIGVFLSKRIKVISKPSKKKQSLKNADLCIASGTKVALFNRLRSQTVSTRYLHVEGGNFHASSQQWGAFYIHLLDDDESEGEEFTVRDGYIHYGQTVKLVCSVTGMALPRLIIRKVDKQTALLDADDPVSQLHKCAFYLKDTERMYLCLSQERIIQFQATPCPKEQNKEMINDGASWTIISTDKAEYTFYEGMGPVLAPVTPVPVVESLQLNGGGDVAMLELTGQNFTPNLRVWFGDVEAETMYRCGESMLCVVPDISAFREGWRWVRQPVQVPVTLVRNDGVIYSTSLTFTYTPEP
- method description: ITC
reported endpoint: pKd
Please treat pKd as minus the base-10 logarithm of the molar concentration.

// query Recorded pKd of VWWP [KyoT2 tetrapeptide VWWP (residues 190-193)] , please.
// result 5.10
